molecular target: human insulin receptor (HIR) (human, UniProt P06213); experiment: competition
No end group written: not given here.
Consider the following binders and their measured Kd readings.

Solved cases (3 shown):
binder	Kd
S432 (peptide) chain 1: ESFYDWFERQLGGGGK chain 2: CEVYGRGCPS	180000 pM
SLEEEWAQIECEVWGRGCPSY [S592]	17000 pM
SLEEEWAQIQCEVWGRGCPSESFYDWFERQL (not fully specified (N-terminus); ends and bridges not checked) [S606]	4 pM

Sample SIEEEWAQIKCDVWGRGCPSESFYDWFERQL [S517] — what was its Kd?
6 pM

Item SLEEEWAQIECEVYGRGCPSESFYDWFERQLG [S554] has what recorded Kd?
6.4 pM

// Kd lookup, key: Ac-SIEEEWAQIKCDVWGRGSESFYDWFERQL (ends and bridges not checked) [S600]
7.6 pM
